system: velvetleaf; experiment: Test B preemergence/postemergence greenhouse plant response rating 0 to 10; format: in vivo, Abutilon theophrasti; conditions: Rate 200 g/ha, PREEMERGENCE; 0 to 10 scale
assayMetric: Plant response rating, Velvetleaf

>>> observedvalue("CC(C)COc1cc(-c2nn3c(c2Cl)CCCC3)c(F)cc1Cl [Compound 30]")
10
>>> observedvalue("CC(C)OC(=O)c1cc(-c2nn3c(c2Cl)CCCC3)c(F)cc1Cl [Compound 44]")
8
>>> observedvalue("C=C(Cl)COc1cc(-c2nn3c(c2Cl)CCCC3)c(F)cc1Cl [Compound 40]")
8
>>> observedvalue("C=CCOc1cc(-c2nn3c(c2Br)CCCC3)c(F)cc1Cl [Compound 37]")
9
>>> observedvalue("COC(=O)C(C)Oc1cc(-c2nn3c(c2Cl)CCCC3)c(F)cc1Cl (centres unmarked) [Compound 28]")
10
>>> observedvalue("CCC(C)Oc1cc(-c2nn3c(c2Cl)CCCC3)c(F)cc1Cl (centres unmarked) [Compound 48]")
4
>>> observedvalue("C#CC(C)Oc1cc(-c2nn3c(c2Cl)CCCC3)c(F)cc1Cl (centres unmarked) [Compound 36]")
10
>>> observedvalue("Clc1ccc(-c2nn3c(c2Cl)CCCC3)c(Cl)c1 [Compound 35]")
10

Data provenance: patent US6358885B1
